Experiment: AUC (0 to infinity) in Sprague-Dawley rat at 10 mg/kg, po by reverse phase chromatography
Format: ADME, organism-based
Conditions: in vivo
measure-name: AUC(0-inf)

Look up and report measured AUC(0-inf) for this entry: C[C@@]1(O)[C@H](O)[C@@H](CO)O[C@H]1c1coc2c(N)ncnc12
5650 ng·h/mL

* * *

Target: hERG potassium channel (KCNH2) (Homo sapiens, UniProt Q12809)
Sequence (Q12809 whole entry): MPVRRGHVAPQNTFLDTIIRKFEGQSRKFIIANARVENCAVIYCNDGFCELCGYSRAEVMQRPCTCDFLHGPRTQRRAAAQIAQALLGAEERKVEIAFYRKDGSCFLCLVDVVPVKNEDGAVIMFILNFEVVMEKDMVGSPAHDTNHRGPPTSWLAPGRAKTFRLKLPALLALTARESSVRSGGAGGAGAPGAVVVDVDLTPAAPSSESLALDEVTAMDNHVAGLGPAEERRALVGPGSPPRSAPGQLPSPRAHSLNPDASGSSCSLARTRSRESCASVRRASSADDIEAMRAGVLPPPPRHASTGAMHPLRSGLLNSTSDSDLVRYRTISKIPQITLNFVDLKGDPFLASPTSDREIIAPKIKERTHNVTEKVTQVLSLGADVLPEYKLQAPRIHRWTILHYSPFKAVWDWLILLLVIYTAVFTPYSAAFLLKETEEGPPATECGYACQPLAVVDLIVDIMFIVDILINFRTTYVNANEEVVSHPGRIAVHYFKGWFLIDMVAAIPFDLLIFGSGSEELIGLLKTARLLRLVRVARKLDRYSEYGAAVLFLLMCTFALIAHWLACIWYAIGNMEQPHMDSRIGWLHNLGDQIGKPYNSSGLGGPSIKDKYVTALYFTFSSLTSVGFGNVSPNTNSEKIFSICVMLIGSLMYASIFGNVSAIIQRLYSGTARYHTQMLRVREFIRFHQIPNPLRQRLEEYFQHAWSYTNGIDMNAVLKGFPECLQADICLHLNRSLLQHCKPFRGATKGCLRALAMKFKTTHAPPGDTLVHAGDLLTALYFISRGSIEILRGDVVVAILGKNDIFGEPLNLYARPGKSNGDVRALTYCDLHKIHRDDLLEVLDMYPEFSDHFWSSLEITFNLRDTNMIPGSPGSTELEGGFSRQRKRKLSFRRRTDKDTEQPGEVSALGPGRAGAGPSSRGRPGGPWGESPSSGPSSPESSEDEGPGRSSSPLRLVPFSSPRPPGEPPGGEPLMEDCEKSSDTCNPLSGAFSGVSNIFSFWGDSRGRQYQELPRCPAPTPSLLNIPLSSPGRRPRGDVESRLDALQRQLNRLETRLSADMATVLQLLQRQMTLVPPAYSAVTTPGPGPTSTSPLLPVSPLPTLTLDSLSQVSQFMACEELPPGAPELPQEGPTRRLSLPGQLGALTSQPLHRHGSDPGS
Experiment: Inhibition of hERG potassium channel expressed in HEK cells at 100 uM relative to control
Type: toxicity, cell-based
Conditions: HEK cells expressing hERG
measure-name: inhibition at 100 µM (%)
Could you give me the number in %? Just the number is fine.

Could you please provide reported inhibition at 100 µM for C[C@@]1(O)[C@H](O)[C@@H](CO)O[C@H]1c1coc2c(N)ncnc12 ? Thanks!
1.3
